Biological target: Recombinant human mPGES-1 (Homo sapiens, UniProt O14684)
Sequence (O14684 whole entry): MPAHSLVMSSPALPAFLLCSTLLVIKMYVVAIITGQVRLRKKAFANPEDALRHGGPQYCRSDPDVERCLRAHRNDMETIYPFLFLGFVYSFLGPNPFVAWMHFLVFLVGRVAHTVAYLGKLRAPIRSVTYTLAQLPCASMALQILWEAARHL
Assay: In-vitro mPGES-1 enzyme inhibition assay (PGE2 formation from PGH2, HTRF detection)
Format: biochemical
Conditions: 1 μM test compound; recombinant human mPGES-1 microsomal fraction; read-out: Percentage inhibition at 1 μM
readout.type: inhibition at 1 µM (%)
Your answer should be a plain number; it is taken to be in %.

Recorded results for 5 compounds are shown here.
compound	inhibition at 1 µM [%]
CN(C)CCNC(=O)c1cc2nc(Nc3c(Cl)cccc3Cl)[nH]c2c2c1OC(C)(C)C2 [Example-61]	6.5
CC1(C)Cc2c(c(C(=O)NCC(F)(F)F)cc3nc(Nc4c(Cl)cccc4Cl)[nH]c23)O1 [Example-62]	96.8
CC1(C)Cc2c(c(C(=O)NCc3ccc(F)cc3)cc3nc(Nc4c(F)cccc4Cl)[nH]c23)O1 [Example-39]	92.5
CC1(C)Cc2c(c(C(=O)Nc3ccc(F)c(C(F)(F)F)c3)cc3nc(Nc4c(Cl)cncc4Cl)[nH]c23)O1 [Example-196]	100
CC1(C)Cc2c(c(C(=O)Nc3ccc(Br)cc3)cc3nc(Nc4ccccc4Cl)[nH]c23)O1 [Example-78]	88.5

Fill in: inhibition at 1 µM of Cc1cc2c(o1)c(C(=O)NCC1CCCCC1)cc1nc(Nc3c(F)cccc3Cl)[nH]c12 [Example-49] is ___
91.6

Fill in: inhibition at 1 µM of CC1(C)Cc2c(c(C(=O)Nc3ccc(F)cc3)cc3nc(Nc4c(Cl)cncc4Cl)[nH]c23)O1 [Example-24] is ___
95.3

Fill in: inhibition at 1 µM of O=C(Nc1cc(C(F)(F)F)ccc1F)c1cc2nc(Nc3c(F)cccc3Cl)[nH]c2c2nc(C3CC3)oc12 [Example-185] is ___
94.4

Fill in: inhibition at 1 µM of CCCCCNC(=O)c1cc2nc(Nc3c(Cl)cccc3Cl)[nH]c2c2c1OC(C)(C)C2 [Example-9] is ___
83

Fill in: inhibition at 1 µM of CC1(C)Cc2c(c(C(=O)Nc3nc4ccc(F)cc4s3)cc3nc(Nc4c(Cl)cccc4Cl)[nH]c23)O1 [Example-95] is ___
90.6

Fill in: inhibition at 1 µM of Cc1ccc(NC(=O)c2cc3nc(Nc4c(Cl)cccc4Cl)[nH]c3c3c2OC(C)(C)C3)c(F)c1 [Example-142] is ___
97.9

Fill in: inhibition at 1 µM of Cc1cccc(Cl)c1Nc1nc2cc(C(=O)Nc3c(F)cc(F)cc3F)c3c(c2[nH]1)CC(C)(C)O3 [Example-109] is ___
93.8

Fill in: inhibition at 1 µM of CC1(C)Cc2c(c(C(=O)Nc3cc(C4CC4)ccc3F)cc3nc(Nc4c(F)cccc4Cl)[nH]c23)O1 [Example-134] is ___
99.9
